Values compiled from the kinase profiling compilation of Christmann-Franck et al. (2016).

target: MAP3K11 (human); experiment: KINOMEscan competition binding; conditions: compound 10.0 µM
Reported kinase still bound, per cent of control values are given for each entry in this list.
Give the number; % is assumed, so skip it.

O=c1cc(N2CCOCC2)oc2c(-c3cccc4c3sc3ccccc34)cccc12 = 97
CN(C)C/C=C/C(=O)Nc1ccc(C(=O)Nc2cccc(Nc3nccc(-c4cccnc4)n3)c2)cc1 = 100
C[C@@H](Oc1cc(-c2cnn(C3CCNCC3)c2)cnc1N)c1c(Cl)ccc(F)c1Cl = 81
O=C(Nc1cccc(Nc2ncc(Br)c(NCCc3cnc[nH]3)n2)c1)N1CCCC1 = 0.75
O=C1NC(=O)/C(=C/c2ccc3nccc(-c4ccncc4)c3c2)S1 = 98

Query string: Item COc1cc(N2CCN(C)CC2)ccc1Nc1ncc2c(n1)N(C)c1ccccc1C(=O)N2C has what recorded kinase still bound, per cent of control?
Result string: 100

====

molecular target: UniProtKB P21127; assay: KINOMEscan competition binding; settings: compound 10.0 µM
Sequence (P21127 whole entry, looked up): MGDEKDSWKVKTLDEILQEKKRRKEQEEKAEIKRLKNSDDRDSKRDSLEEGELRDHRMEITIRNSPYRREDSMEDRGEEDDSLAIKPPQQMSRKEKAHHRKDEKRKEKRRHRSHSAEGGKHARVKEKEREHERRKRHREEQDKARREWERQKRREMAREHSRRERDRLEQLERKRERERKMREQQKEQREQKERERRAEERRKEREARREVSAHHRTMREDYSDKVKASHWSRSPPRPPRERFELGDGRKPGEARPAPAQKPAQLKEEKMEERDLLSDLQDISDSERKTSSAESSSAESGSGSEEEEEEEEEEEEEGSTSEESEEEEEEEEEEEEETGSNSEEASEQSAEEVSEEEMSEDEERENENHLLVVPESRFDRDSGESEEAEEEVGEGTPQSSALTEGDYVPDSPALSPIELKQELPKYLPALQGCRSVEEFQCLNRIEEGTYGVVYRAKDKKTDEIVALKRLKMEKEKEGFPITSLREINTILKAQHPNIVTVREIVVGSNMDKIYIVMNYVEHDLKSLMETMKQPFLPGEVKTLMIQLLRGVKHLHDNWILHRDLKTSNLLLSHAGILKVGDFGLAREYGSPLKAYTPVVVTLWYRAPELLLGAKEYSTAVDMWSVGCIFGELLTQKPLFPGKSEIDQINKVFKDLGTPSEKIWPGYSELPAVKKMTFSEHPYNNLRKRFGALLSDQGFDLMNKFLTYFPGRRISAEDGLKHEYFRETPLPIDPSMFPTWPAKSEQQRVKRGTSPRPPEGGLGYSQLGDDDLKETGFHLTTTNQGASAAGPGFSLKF
Reported kinase still bound, per cent of control values are given for each entry in this list.
Give the number; % is assumed, so skip it.

Recorded kinase still bound, per cent of control, per entry:
CNC(=O)c1cc(Oc2ccc(NC(=O)Nc3ccc(Cl)c(C(F)(F)F)c3)cc2)ccn1 = 98
CCN(CC)CCCCNc1ncc2c(n1)N(C)C(=O)N(c1c(Cl)c(OC)cc(OC)c1Cl)C2 = 100
CS(=O)(=O)N1CCN(Cc2cc3nc(-c4cccc5[nH]ncc45)nc(N4CCOCC4)c3s2)CC1 = 100
COCC(=O)NC/C=C/c1ccc2ncnc(Nc3ccc(Oc4ccc(C)nc4)c(C)c3)c2c1 = 100

Query string: Item COc1cc2ncn(-c3cc(OCc4ccccc4C(F)(F)F)c(C(N)=O)s3)c2cc1OC has what recorded kinase still bound, per cent of control?
Result string: 100

Query string: Item CCN(CC)CCCCNc1ncc2cc(-c3cc(OC)cc(OC)c3)c(NC(=O)NC(C)(C)C)nc2n1 has what recorded kinase still bound, per cent of control?
Result string: 100

Query string: Item O=C(Nc1cccc(Nc2ncc(Br)c(NCCc3cnc[nH]3)n2)c1)N1CCCC1 has what recorded kinase still bound, per cent of control?
Result string: 66

Query string: Item Cc1n[nH]c2ccc(-c3cncc(OC[C@@H](N)Cc4c[nH]c5ccccc45)c3)cc12 has what recorded kinase still bound, per cent of control?
Result string: 100

Query string: Item C=CC(=O)Nc1ccc(CN(C(=O)Nc2c(Cl)c(OC)cc(OC)c2Cl)c2cc(Nc3ccc(N4CCN(C)CC4)cc3)ncn2)cc1 has what recorded kinase still bound, per cent of control?
Result string: 100

====

biological target: PIK3C2B (human); assay: KINOMEscan competition binding; details: compound 10.0 µM
measurement-type: kinase still bound, per cent of control (%)
Give the number; % is assumed, so skip it.

Recorded kinase still bound, per cent of control, per entry:
COCC(=O)NC/C=C/c1ccc2ncnc(Nc3ccc(Oc4ccc(C)nc4)c(C)c3)c2c1 = 88
CCN1CCN(C(=O)Cc2ccc(Nc3ncc(F)c(Nc4ccc(C(=O)Nc5ccccc5Cl)cc4)n3)cc2)CC1 = 93
C=CC(=O)Nc1ccc(CN(C(=O)Nc2c(Cl)c(OC)cc(OC)c2Cl)c2cc(Nc3ccc(N4CCN(C)CC4)cc3)ncn2)cc1 = 100
C=CC(=O)Nc1cc(-n2c(=O)ccc3cnc4ccc(-c5cn[nH]c5)cc4c32)ccc1C = 53
COc1ccc(N(C(=O)Oc2c(C)cccc2C)c2ccnc(Nc3ccc(N4CCN(C)CC4)cc3)n2)c(OC)c1 = 11

Query string: Item O=c1cc(N2CCOCC2)oc2c(-c3cccc4c3sc3ccccc34)cccc12 has what recorded kinase still bound, per cent of control?
Result string: 20

Query string: Item CN(C)C/C=C/C(=O)Nc1ccc(C(=O)Nc2cccc(Nc3nccc(-c4cccnc4)n3)c2)cc1 has what recorded kinase still bound, per cent of control?
Result string: 100

Query string: Item C[C@@H](Oc1cc(-c2cnn(C3CCNCC3)c2)cnc1N)c1c(Cl)ccc(F)c1Cl has what recorded kinase still bound, per cent of control?
Result string: 46

Query string: Item O=C(Nc1cccc(Nc2ncc(Br)c(NCCc3cnc[nH]3)n2)c1)N1CCCC1 has what recorded kinase still bound, per cent of control?
Result string: 89

====

target: LCK (human) (UniProt P06239); test: KINOMEscan competition binding; conditions: compound 10.0 µM
Sequence (P06239 whole entry, looked up): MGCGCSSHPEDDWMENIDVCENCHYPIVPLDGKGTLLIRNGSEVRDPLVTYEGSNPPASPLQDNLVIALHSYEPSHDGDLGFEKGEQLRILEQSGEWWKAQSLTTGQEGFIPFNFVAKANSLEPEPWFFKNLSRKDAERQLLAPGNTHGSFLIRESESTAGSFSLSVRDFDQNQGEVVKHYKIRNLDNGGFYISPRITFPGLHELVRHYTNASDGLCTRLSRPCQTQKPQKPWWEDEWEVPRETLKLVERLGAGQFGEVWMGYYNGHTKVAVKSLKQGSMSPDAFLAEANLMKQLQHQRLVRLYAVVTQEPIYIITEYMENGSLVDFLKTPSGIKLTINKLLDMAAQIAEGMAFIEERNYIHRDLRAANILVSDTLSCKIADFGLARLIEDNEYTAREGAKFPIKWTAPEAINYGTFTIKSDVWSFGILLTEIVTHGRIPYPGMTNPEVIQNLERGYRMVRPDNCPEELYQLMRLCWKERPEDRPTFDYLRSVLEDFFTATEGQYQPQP
Reported kinase still bound, per cent of control values are given for each entry in this list.
Give the number; % is assumed, so skip it.

CS(=O)(=O)N1CCN(Cc2cc3nc(-c4cccc5[nH]ncc45)nc(N4CCOCC4)c3s2)CC1 = 100
COc1cc(N2CCN(C)CC2)ccc1Nc1ncc2c(n1)N(C)c1ccccc1C(=O)N2C = 100
O=c1cc(N2CCOCC2)oc2c(-c3cccc4c3sc3ccccc34)cccc12 = 90
CN(C)C/C=C/C(=O)Nc1ccc(C(=O)Nc2cccc(Nc3nccc(-c4cccnc4)n3)c2)cc1 = 100
C[C@@H](Oc1cc(-c2cnn(C3CCNCC3)c2)cnc1N)c1c(Cl)ccc(F)c1Cl = 0.15
N#CCNC(=O)c1ccc(-c2ccnc(Nc3ccc(N4CCOCC4)cc3)n2)cc1 = 90

Query string: Item NC(=O)Nc1cc(-c2cccc(F)c2)sc1C(=O)N[C@@H]1CCCNC1 has what recorded kinase still bound, per cent of control?
Result string: 0

====

biological target: UniProt:Q13705; assay: KINOMEscan competition binding; conditions: compound 10.0 µM
Sequence (Q13705 whole entry, looked up): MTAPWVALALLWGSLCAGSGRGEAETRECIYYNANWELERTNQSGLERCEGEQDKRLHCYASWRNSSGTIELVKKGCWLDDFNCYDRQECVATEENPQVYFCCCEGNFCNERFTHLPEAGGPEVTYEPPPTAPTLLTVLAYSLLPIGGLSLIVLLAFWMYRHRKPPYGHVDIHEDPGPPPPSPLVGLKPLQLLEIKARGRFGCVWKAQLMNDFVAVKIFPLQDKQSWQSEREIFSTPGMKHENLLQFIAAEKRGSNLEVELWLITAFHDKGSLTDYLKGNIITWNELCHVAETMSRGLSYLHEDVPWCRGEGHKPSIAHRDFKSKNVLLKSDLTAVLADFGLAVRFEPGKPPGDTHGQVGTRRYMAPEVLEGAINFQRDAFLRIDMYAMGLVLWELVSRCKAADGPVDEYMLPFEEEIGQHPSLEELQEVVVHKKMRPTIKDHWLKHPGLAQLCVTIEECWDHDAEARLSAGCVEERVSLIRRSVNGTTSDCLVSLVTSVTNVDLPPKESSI
Could you please mark label 1 for values of kinase still bound, per cent of control below 40% and label 0 for values at or above it?

Known results for compounds:
CCN1CCN(C(=O)Cc2ccc(Nc3ncc(F)c(Nc4ccc(C(=O)Nc5ccccc5Cl)cc4)n3)cc2)CC1 = label 1
CCN(CC)CCCCNc1ncc2c(n1)N(C)C(=O)N(c1c(Cl)c(OC)cc(OC)c1Cl)C2 = label 0
C[C@@H](Oc1cc(-c2cnn(C3CCNCC3)c2)cnc1N)c1c(Cl)ccc(F)c1Cl = label 1
COCC(=O)NC/C=C/c1ccc2ncnc(Nc3ccc(Oc4ccc(C)nc4)c(C)c3)c2c1 = label 0

Query string: Below 40% on kinase still bound, per cent of control? Entry COc1cc(C(=O)N2CCC(N3CCN(C)CC3)CC2)ccc1Nc1ncc2c(n1)N(C)c1ccccc1C(=O)N2C
Result string: label 0

====

biological target: BMPR1A (human) (UniProt P36894); experiment: KINOMEscan competition binding; conditions: compound 10.0 µM
Sequence (P36894 whole entry, looked up): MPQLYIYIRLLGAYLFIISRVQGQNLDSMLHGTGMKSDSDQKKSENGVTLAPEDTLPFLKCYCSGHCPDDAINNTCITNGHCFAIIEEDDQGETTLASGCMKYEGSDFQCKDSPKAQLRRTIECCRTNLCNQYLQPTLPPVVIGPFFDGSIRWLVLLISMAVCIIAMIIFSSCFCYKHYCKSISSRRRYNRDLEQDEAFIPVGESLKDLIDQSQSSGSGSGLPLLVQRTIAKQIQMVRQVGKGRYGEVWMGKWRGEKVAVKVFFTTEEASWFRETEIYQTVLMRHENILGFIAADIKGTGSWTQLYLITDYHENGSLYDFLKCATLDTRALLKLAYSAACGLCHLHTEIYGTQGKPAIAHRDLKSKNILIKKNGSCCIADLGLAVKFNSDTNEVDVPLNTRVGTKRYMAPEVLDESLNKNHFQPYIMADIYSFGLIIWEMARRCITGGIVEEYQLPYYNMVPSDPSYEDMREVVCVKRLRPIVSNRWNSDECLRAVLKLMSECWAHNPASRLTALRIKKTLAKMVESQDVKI
Reported kinase still bound, per cent of control values are given for each entry in this list.
Give the number; % is assumed, so skip it.

CNC(=O)c1cc(Oc2ccc(NC(=O)Nc3ccc(Cl)c(C(F)(F)F)c3)cc2)ccn1 = 100
COc1ccc(N(C(=O)Oc2c(C)cccc2C)c2ccnc(Nc3ccc(N4CCN(C)CC4)cc3)n2)c(OC)c1 = 0.1
CCN(CC)CCCCNc1ncc2c(n1)N(C)C(=O)N(c1c(Cl)c(OC)cc(OC)c1Cl)C2 = 100
NC(=O)Nc1cc(-c2cccc(F)c2)sc1C(=O)N[C@@H]1CCCNC1 = 0.4
Cc1n[nH]c2ccc(-c3cncc(OC[C@@H](N)Cc4c[nH]c5ccccc45)c3)cc12 = 100
COc1cc2ncn(-c3cc(OCc4ccccc4C(F)(F)F)c(C(N)=O)s3)c2cc1OC = 100
O=c1cc(N2CCOCC2)oc2c(-c3cccc4c3sc3ccccc34)cccc12 = 94
CNC(=O)c1ccc(Nc2cc(Nc3ccccc3S(=O)(=O)C(C)C)c3cc[nH]c3n2)nc1 = 100

Query string: Item CN(C)C/C=C/C(=O)Nc1ccc(C(=O)Nc2cccc(Nc3nccc(-c4cccnc4)n3)c2)cc1 has what recorded kinase still bound, per cent of control?
Result string: 36

====

target: PKN2 (human) (UniProt Q16513); assay: KINOMEscan competition binding; conditions: compound 10.0 µM
Sequence (Q16513 whole entry, looked up): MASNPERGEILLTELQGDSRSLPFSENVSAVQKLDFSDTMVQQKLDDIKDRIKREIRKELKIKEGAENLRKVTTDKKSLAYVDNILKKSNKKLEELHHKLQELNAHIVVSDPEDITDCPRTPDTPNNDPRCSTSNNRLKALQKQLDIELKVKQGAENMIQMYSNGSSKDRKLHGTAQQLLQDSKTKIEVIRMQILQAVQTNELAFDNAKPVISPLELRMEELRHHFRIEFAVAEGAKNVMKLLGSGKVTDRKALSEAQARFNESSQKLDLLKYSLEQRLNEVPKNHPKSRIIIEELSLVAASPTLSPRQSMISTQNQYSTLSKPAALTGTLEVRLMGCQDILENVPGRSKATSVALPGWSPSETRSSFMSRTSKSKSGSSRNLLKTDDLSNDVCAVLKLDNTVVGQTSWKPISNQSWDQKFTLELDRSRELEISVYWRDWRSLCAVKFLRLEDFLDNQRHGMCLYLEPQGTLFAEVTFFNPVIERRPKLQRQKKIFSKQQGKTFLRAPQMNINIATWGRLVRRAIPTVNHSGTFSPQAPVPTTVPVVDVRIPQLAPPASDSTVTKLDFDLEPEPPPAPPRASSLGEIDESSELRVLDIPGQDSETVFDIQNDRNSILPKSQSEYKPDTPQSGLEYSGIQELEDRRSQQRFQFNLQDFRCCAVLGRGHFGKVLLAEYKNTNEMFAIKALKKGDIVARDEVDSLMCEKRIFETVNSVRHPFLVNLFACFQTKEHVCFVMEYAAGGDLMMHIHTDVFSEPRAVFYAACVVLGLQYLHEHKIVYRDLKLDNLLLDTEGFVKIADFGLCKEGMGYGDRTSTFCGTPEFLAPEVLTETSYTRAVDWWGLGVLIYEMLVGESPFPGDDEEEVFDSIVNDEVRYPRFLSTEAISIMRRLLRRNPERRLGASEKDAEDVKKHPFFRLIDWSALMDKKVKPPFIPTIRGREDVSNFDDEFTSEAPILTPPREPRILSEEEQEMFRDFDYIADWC
measurement-type: kinase still bound, per cent of control

O=c1cc(N2CCOCC2)oc2c(-c3cccc4c3sc3ccccc34)cccc12 = 86%
C[C@@H](Oc1cc(-c2cnn(C3CCNCC3)c2)cnc1N)c1c(Cl)ccc(F)c1Cl = 26%
C=CC(=O)Nc1ccc(CN(C(=O)Nc2c(Cl)c(OC)cc(OC)c2Cl)c2cc(Nc3ccc(N4CCN(C)CC4)cc3)ncn2)cc1 = 100%
COCC(=O)NC/C=C/c1ccc2ncnc(Nc3ccc(Oc4ccc(C)nc4)c(C)c3)c2c1 = 99%
CNC(=O)c1ccc(Nc2cc(Nc3ccccc3S(=O)(=O)C(C)C)c3cc[nH]c3n2)nc1 = 5.4%
COc1cc2ncnc(-n3nc(-c4ccccn4)nc3N)c2cc1OC = 79%
COc1cc(C(=O)N2CCC(N3CCN(C)CC3)CC2)ccc1Nc1ncc2c(n1)N(C)c1ccccc1C(=O)N2C = 95%
CCN(CC)CCCCNc1ncc2c(n1)N(C)C(=O)N(c1c(Cl)c(OC)cc(OC)c1Cl)C2 = 100%

Now for a further molecule.
Query string: Item CCN(CC)CCCCNc1ncc2cc(-c3cc(OC)cc(OC)c3)c(NC(=O)NC(C)(C)C)nc2n1 has what recorded kinase still bound, per cent of control?
Result string: 100%
